Target: KDM4B (Homo sapiens, UniProt O94953)
Sequence (O94953 1-500): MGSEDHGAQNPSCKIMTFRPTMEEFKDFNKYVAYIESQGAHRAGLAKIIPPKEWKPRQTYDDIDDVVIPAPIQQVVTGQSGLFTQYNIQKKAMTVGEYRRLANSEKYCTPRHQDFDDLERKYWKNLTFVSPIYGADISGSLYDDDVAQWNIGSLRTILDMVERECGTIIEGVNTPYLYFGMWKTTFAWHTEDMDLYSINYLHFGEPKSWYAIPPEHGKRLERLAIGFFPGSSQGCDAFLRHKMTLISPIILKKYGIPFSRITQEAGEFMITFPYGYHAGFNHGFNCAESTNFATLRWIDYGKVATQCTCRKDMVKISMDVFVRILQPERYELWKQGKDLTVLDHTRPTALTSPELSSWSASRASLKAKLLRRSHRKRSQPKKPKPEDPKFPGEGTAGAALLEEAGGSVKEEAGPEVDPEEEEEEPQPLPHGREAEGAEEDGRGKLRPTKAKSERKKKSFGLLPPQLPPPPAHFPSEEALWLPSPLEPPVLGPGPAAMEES
pIC50: −log10 of the molar value.
test_readout: pIC50

Entry O=C(NCCCc1ccccc1)c1cccc(-c2cc(O)c3ncccc3c2)c1 [B3, NCGC00244536] has what pIC50?
~8.00
